Entries and their measured IC50 follow.
target: porcine gastric H^+/K^+-ATPase (Sus scrofa); construct: prepared from mucous membrane in fresh porcine stomachs by homogenization; experiment: Ion-tight porcine gastric H+/K+-ATPase inhibition; settings: ion-tight porcine gastric vesicles, 150 mM KCl, valinomycin, pH 7.4, 37° C., 30 minutes
Sequence (P19156 2-1034 limits assumed): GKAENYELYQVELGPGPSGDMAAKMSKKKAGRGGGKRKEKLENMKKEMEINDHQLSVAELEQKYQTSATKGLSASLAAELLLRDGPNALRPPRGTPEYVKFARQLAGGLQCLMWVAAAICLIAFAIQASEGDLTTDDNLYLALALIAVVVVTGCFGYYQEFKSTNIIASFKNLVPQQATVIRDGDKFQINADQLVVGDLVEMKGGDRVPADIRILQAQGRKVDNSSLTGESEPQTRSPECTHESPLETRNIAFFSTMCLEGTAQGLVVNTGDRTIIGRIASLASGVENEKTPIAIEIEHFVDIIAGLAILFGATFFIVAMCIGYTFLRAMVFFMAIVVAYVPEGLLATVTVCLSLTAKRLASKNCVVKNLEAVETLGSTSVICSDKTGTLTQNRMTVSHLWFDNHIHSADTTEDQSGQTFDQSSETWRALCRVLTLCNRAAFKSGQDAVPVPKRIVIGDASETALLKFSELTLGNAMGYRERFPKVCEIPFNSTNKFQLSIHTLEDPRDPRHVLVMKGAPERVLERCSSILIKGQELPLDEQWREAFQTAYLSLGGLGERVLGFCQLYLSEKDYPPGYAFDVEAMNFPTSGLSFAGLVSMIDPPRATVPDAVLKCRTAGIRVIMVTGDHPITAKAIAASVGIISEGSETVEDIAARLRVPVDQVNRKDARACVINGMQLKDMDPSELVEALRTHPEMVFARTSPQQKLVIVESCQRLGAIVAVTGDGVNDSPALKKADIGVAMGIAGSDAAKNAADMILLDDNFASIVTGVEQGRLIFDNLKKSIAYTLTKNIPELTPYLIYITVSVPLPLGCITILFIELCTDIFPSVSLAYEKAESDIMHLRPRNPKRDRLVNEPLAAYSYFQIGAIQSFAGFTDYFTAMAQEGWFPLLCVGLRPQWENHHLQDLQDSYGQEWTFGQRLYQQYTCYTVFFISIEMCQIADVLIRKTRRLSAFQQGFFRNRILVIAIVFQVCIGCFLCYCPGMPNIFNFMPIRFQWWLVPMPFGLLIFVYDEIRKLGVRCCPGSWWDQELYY
Sequence (P18434 whole entry partner): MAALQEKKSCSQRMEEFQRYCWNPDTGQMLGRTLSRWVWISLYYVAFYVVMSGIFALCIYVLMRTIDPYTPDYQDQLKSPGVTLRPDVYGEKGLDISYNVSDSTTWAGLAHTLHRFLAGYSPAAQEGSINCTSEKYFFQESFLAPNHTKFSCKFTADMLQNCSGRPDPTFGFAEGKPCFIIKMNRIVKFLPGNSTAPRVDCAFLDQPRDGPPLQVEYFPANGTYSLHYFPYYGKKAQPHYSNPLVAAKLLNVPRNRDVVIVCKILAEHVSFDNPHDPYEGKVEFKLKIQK

| compound | IC50 |
| --- | --- |
| Cc1nc2c(O[C@H]3CCOc4cc(F)cc(F)c43)cc(C(=O)N(C)C)cc2[nH]1 (single isomer, unassigned) [Example 2] | 86 nM |
| Cc1nc2c(OC3CCOc4cc(F)cc(F)c43)cc(C(=O)N3CCCC3)cc2[nH]1 (racemic) [Example 4] | 58 nM |
| Cc1nc2c(OC3CCOc4cc(F)cc(F)c43)cc(C(=O)N3CCC3)cc2[nH]1 (single isomer, unassigned; (-)) [Example 22] | 570 nM |
| CNC(=O)c1cc(OC2CCOc3cccc(C)c32)c2nc(C)[nH]c2c1 (centres unmarked) [Example 19] | 240 nM |
| Cc1nc2c(OC3CCOc4cccc(F)c43)cc(C(=O)N(C)C)cc2[nH]1 (racemic) [Example 9] | 130 nM |
| Cc1nc2c(OC3CCOc4ccccc43)cc(C(=O)N(C)C)cc2[nH]1 (centres unmarked) [Example 12] | 230 nM |
| CCN(C)C(=O)c1cc(O[C@H]2CCOc3cc(F)cc(F)c32)c2nc(C)[nH]c2c1 [Example 23] | 110 nM |
| Cc1nc2c(OC3CCOc4cccc(C)c43)cc(C(=O)N(C)C)cc2[nH]1 (centres unmarked) [Example 16] | 68 nM |
| Cc1nc2c(O[C@H]3CCOc4cc(F)cc(F)c43)cc(C(=O)N3CCOCC3)cc2[nH]1 [Example 24] | 370 nM |
| Cc1nc2c(OC3CCOc4cccc(F)c43)cc(C(=O)N(C)C)cc2[nH]1 (single isomer, unassigned; (+)) [Example 11] | 120 nM |
| Cc1nc2c(OC3CCOc4cccc(C)c43)cc(C(=O)N3CCCC3)cc2[nH]1 (centres unmarked) [Example 20] | 71 nM |
| Cc1nc2c(OC3CCSc4ccccc43)cc(C(=O)N(C)C)cc2[nH]1 (centres unmarked) [Example 25] | 160 nM |
| Cc1nc2c(OC3CCOc4cccc(C)c43)cc(C(=O)N(C)C)cc2[nH]1 (single isomer, unassigned; (-)) [Example 17] | 99 nM |
| Cc1nc2c(OC3CCOc4cccc(C)c43)cc(C(=O)N(C)C)cc2[nH]1 (single isomer, unassigned; (+)) [Example 18] | 130 nM |

Data credit: patent US7723321B2
